Assay: activity coefficient (dimensionless); of the first substance listed, at infinite dilution; xn = mol fraction of the nth substance listed
Conditions: 368.15 K; 101 kPa; Liquid; Chromatography; x1 = 0
measure name: activity coefficient

* C1CCCCCCC1 [cyclooctane] + CCCCCCOCn1cc[n+](COCCCCCC)c1.O=S(=O)([N-]S(=O)(=O)C(F)(F)F)C(F)(F)F | 2.47
* CCOCC [diethyl ether] + CCCCCCOCn1cc[n+](C)c1.O=S(=O)([N-]S(=O)(=O)C(F)(F)F)C(F)(F)F | 1.45
* C1CCOC1 [tetrahydrofuran] + CCCCCCOCn1cc[n+](COCCCCCC)c1.O=S(=O)([N-]S(=O)(=O)C(F)(F)F)C(F)(F)F | 0.36
* CCCCCCCC [octane] + CCCCCCOCn1cc[n+](COCCCCCC)c1.O=S(=O)([N-]S(=O)(=O)C(F)(F)F)C(F)(F)F | 3.81
* C=CCCCC [hex-1-ene] + CCCCCCOCn1cc[n+](COCCCCCC)c1.O=S(=O)([N-]S(=O)(=O)C(F)(F)F)C(F)(F)F | 1.97
* CCCCCCCC [octane] + CCCCCCOCn1cc[n+](C)c1.O=S(=O)([N-]S(=O)(=O)C(F)(F)F)C(F)(F)F | 9.51
* CCCCCCC [heptane] + CCCCCCOCn1cc[n+](COCCCCCC)c1.O=S(=O)([N-]S(=O)(=O)C(F)(F)F)C(F)(F)F | 3.19
* C=CCCC [1-pentene] + CCCCCCOCn1cc[n+](C)c1.O=S(=O)([N-]S(=O)(=O)C(F)(F)F)C(F)(F)F | 3.41
* CCOCC [diethyl ether] + CCCCCCOCn1cc[n+](COCCCCCC)c1.O=S(=O)([N-]S(=O)(=O)C(F)(F)F)C(F)(F)F | 0.904
* CCCCC [pentane] + CCCCCCOCn1cc[n+](COCCCCCC)c1.O=S(=O)([N-]S(=O)(=O)C(F)(F)F)C(F)(F)F | 2.33
* C1CCCCCC1 [cycloheptane] + CCCCCCOCn1cc[n+](C)c1.O=S(=O)([N-]S(=O)(=O)C(F)(F)F)C(F)(F)F | 4.6
* CCCOCCC [dipropyl ether] + CCCCCCOCn1cc[n+](C)c1.O=S(=O)([N-]S(=O)(=O)C(F)(F)F)C(F)(F)F | 2.77
* CCCCCCC [heptane] + CCCCCCOCn1cc[n+](C)c1.O=S(=O)([N-]S(=O)(=O)C(F)(F)F)C(F)(F)F | 7.66
* CCO [ethanol] + CCCCCCOCn1cc[n+](COCCCCCC)c1.O=S(=O)([N-]S(=O)(=O)C(F)(F)F)C(F)(F)F | 0.719

----------
Assay: activity coefficient (dimensionless); of the first substance listed, at infinite dilution; xn = mol fraction of the nth substance listed
Conditions: 358.15 K; 101 kPa; Liquid; Chromatography; x1 = 0
Classification scheme (activity coefficient): bottom range = under 1, center range = from 1 up to 2, top range = 2 and over

- CCCO [propan-1-ol] + CCCCCCOCn1cc[n+](C)c1.O=S(=O)([N-]S(=O)(=O)C(F)(F)F)C(F)(F)F: center range
- CCCCCCCC [octane] + CCCCCCOCn1cc[n+](COCCCCCC)c1.O=S(=O)([N-]S(=O)(=O)C(F)(F)F)C(F)(F)F: top range
- C1CCCC1 [cyclopentane] + CCCCCCOCn1cc[n+](COCCCCCC)c1.O=S(=O)([N-]S(=O)(=O)C(F)(F)F)C(F)(F)F: center range
- C#CCCCCCC [1-octyne] + CCCCCCOCn1cc[n+](COCCCCCC)c1.O=S(=O)([N-]S(=O)(=O)C(F)(F)F)C(F)(F)F: center range
- Cc1ccc(C)cc1 [1,4-dimethylbenzene] + CCCCCCOCn1cc[n+](COCCCCCC)c1.O=S(=O)([N-]S(=O)(=O)C(F)(F)F)C(F)(F)F: bottom range
- CCOCC [diethyl ether] + CCCCCCOCn1cc[n+](C)c1.O=S(=O)([N-]S(=O)(=O)C(F)(F)F)C(F)(F)F: center range
- CCCCCCCCCC [decane] + CCCCCCOCn1cc[n+](C)c1.O=S(=O)([N-]S(=O)(=O)C(F)(F)F)C(F)(F)F: top range
- C1CCCCCC1 [cycloheptane] + CCCCCCOCn1cc[n+](COCCCCCC)c1.O=S(=O)([N-]S(=O)(=O)C(F)(F)F)C(F)(F)F: top range
- C#CCCCC [1-hexyne] + CCCCCCOCn1cc[n+](COCCCCCC)c1.O=S(=O)([N-]S(=O)(=O)C(F)(F)F)C(F)(F)F: center range
- C1CCCCC1 [cyclohexane] + CCCCCCOCn1cc[n+](C)c1.O=S(=O)([N-]S(=O)(=O)C(F)(F)F)C(F)(F)F: top range
- Cc1cccc(C)c1 [1,3-dimethylbenzene] + CCCCCCOCn1cc[n+](COCCCCCC)c1.O=S(=O)([N-]S(=O)(=O)C(F)(F)F)C(F)(F)F: bottom range
- c1ccccc1 [benzene] + CCCCCCOCn1cc[n+](COCCCCCC)c1.O=S(=O)([N-]S(=O)(=O)C(F)(F)F)C(F)(F)F: bottom range
- Cc1cccc(C)c1 [1,3-dimethylbenzene] + CCCCCCOCn1cc[n+](C)c1.O=S(=O)([N-]S(=O)(=O)C(F)(F)F)C(F)(F)F: center range

----------
Assay: activity coefficient (dimensionless); of the first substance listed, at infinite dilution; xn = mol fraction of the nth substance listed
Conditions: 328.15 K; 101 kPa; Liquid; Chromatography; x1 = 0
activity coefficient for assorted compounds
measure name: activity coefficient

* CCO [ethanol] + CCCCCCOCn1cc[n+](COCCCCCC)c1.O=S(=O)([N-]S(=O)(=O)C(F)(F)F)C(F)(F)F | 0.958
* C#CCCCC [1-hexyne] + CCCCCCOCn1cc[n+](C)c1.O=S(=O)([N-]S(=O)(=O)C(F)(F)F)C(F)(F)F | 1.96
* C#CCCCCCC [1-octyne] + CCCCCCOCn1cc[n+](C)c1.O=S(=O)([N-]S(=O)(=O)C(F)(F)F)C(F)(F)F | 3.13
* C1CCCC1 [cyclopentane] + CCCCCCOCn1cc[n+](COCCCCCC)c1.O=S(=O)([N-]S(=O)(=O)C(F)(F)F)C(F)(F)F | 1.69

----------
Test: activity coefficient (dimensionless); of the first substance listed, at infinite dilution; xn = mol fraction of the nth substance listed
Settings: 358.15 K; 101 kPa; Liquid; Chromatography; x1 = 0
measure name: activity coefficient

- C1CCCCCCC1 [cyclooctane] + CCCCCCOCn1cc[n+](C)c1.O=S(=O)([N-]S(=O)(=O)C(F)(F)F)C(F)(F)F: 5.75
- C=CCCCCCC [oct-1-ene] + CCCCCCOCn1cc[n+](C)c1.O=S(=O)([N-]S(=O)(=O)C(F)(F)F)C(F)(F)F: 6.5
- CCCCCCCC [octane] + CCCCCCOCn1cc[n+](C)c1.O=S(=O)([N-]S(=O)(=O)C(F)(F)F)C(F)(F)F: 10
- c1ccsc1 [thiophene] + CCCCCCOCn1cc[n+](COCCCCCC)c1.O=S(=O)([N-]S(=O)(=O)C(F)(F)F)C(F)(F)F: 0.559

----------
activity coefficient for assorted compounds
Experiment: activity coefficient (dimensionless); of the first substance listed, at infinite dilution; xn = mol fraction of the nth substance listed
Settings: 328.15 K; 101 kPa; Liquid; Chromatography; x1 = 0
measure name: activity coefficient

- C1CCOC1 [tetrahydrofuran] + CCCCCCOCn1cc[n+](C)c1.O=S(=O)([N-]S(=O)(=O)C(F)(F)F)C(F)(F)F: 0.466
- CCCCC [pentane] + CCCCCCOCn1cc[n+](C)c1.O=S(=O)([N-]S(=O)(=O)C(F)(F)F)C(F)(F)F: 6.25
- C=CCCC [1-pentene] + CCCCCCOCn1cc[n+](COCCCCCC)c1.O=S(=O)([N-]S(=O)(=O)C(F)(F)F)C(F)(F)F: 1.8
- Cc1ccccc1 [toluene] + CCCCCCOCn1cc[n+](C)c1.O=S(=O)([N-]S(=O)(=O)C(F)(F)F)C(F)(F)F: 1.08
- c1ccsc1 [thiophene] + CCCCCCOCn1cc[n+](C)c1.O=S(=O)([N-]S(=O)(=O)C(F)(F)F)C(F)(F)F: 0.745
- C=CCCCC [hex-1-ene] + CCCCCCOCn1cc[n+](COCCCCCC)c1.O=S(=O)([N-]S(=O)(=O)C(F)(F)F)C(F)(F)F: 2.11
- c1ccsc1 [thiophene] + CCCCCCOCn1cc[n+](COCCCCCC)c1.O=S(=O)([N-]S(=O)(=O)C(F)(F)F)C(F)(F)F: 0.568
- Cc1cccc(C)c1 [1,3-dimethylbenzene] + CCCCCCOCn1cc[n+](COCCCCCC)c1.O=S(=O)([N-]S(=O)(=O)C(F)(F)F)C(F)(F)F: 0.946
- CCCCC [pentane] + CCCCCCOCn1cc[n+](COCCCCCC)c1.O=S(=O)([N-]S(=O)(=O)C(F)(F)F)C(F)(F)F: 2.54
- CCCCCCCCCC [decane] + CCCCCCOCn1cc[n+](C)c1.O=S(=O)([N-]S(=O)(=O)C(F)(F)F)C(F)(F)F: 18.9
- CCCO [propan-1-ol] + CCCCCCOCn1cc[n+](COCCCCCC)c1.O=S(=O)([N-]S(=O)(=O)C(F)(F)F)C(F)(F)F: 1
- CCCOCCC [dipropyl ether] + CCCCCCOCn1cc[n+](COCCCCCC)c1.O=S(=O)([N-]S(=O)(=O)C(F)(F)F)C(F)(F)F: 1.5
- CCCCCC [hexane] + CCCCCCOCn1cc[n+](COCCCCCC)c1.O=S(=O)([N-]S(=O)(=O)C(F)(F)F)C(F)(F)F: 2.97
- CO [methanol] + CCCCCCOCn1cc[n+](COCCCCCC)c1.O=S(=O)([N-]S(=O)(=O)C(F)(F)F)C(F)(F)F: 0.9
- Cc1ccccc1C [1,2-dimethylbenzene] + CCCCCCOCn1cc[n+](C)c1.O=S(=O)([N-]S(=O)(=O)C(F)(F)F)C(F)(F)F: 1.34
- C#CCCCCC [1-heptyne] + CCCCCCOCn1cc[n+](C)c1.O=S(=O)([N-]S(=O)(=O)C(F)(F)F)C(F)(F)F: 2.46
- C1CCCCCCC1 [cyclooctane] + CCCCCCOCn1cc[n+](C)c1.O=S(=O)([N-]S(=O)(=O)C(F)(F)F)C(F)(F)F: 6.74
- CCCCCCCC [octane] + CCCCCCOCn1cc[n+](C)c1.O=S(=O)([N-]S(=O)(=O)C(F)(F)F)C(F)(F)F: 11.5
- CCCCO [butan-1-ol] + CCCCCCOCn1cc[n+](C)c1.O=S(=O)([N-]S(=O)(=O)C(F)(F)F)C(F)(F)F: 1.58
- CCCCCCC [heptane] + CCCCCCOCn1cc[n+](COCCCCCC)c1.O=S(=O)([N-]S(=O)(=O)C(F)(F)F)C(F)(F)F: 3.57
- C=CCCCCCC [oct-1-ene] + CCCCCCOCn1cc[n+](C)c1.O=S(=O)([N-]S(=O)(=O)C(F)(F)F)C(F)(F)F: 7.12
- CCCCCCCC [octane] + CCCCCCOCn1cc[n+](COCCCCCC)c1.O=S(=O)([N-]S(=O)(=O)C(F)(F)F)C(F)(F)F: 4.3
- C1CCCCC1 [cyclohexane] + CCCCCCOCn1cc[n+](COCCCCCC)c1.O=S(=O)([N-]S(=O)(=O)C(F)(F)F)C(F)(F)F: 2.08
- C=CCCC [1-pentene] + CCCCCCOCn1cc[n+](C)c1.O=S(=O)([N-]S(=O)(=O)C(F)(F)F)C(F)(F)F: 3.69
- CCCOCCC [dipropyl ether] + CCCCCCOCn1cc[n+](C)c1.O=S(=O)([N-]S(=O)(=O)C(F)(F)F)C(F)(F)F: 2.85
- CCc1ccccc1 [ethylbenzene] + CCCCCCOCn1cc[n+](COCCCCCC)c1.O=S(=O)([N-]S(=O)(=O)C(F)(F)F)C(F)(F)F: 0.964
- CCCCO [butan-1-ol] + CCCCCCOCn1cc[n+](COCCCCCC)c1.O=S(=O)([N-]S(=O)(=O)C(F)(F)F)C(F)(F)F: 1.1
